Origin of the recorded values: patent US10689414B2

Each item that follows carries a reported IC50.
Test system: U87MG cells
Experiment: Cellular assay, inhibition of 2-HG production in U87MG cells
Type: cell-based
Settings: Homo sapiens, U-87 MG, 48 h

In the examples that follow, each entry is paired with its recorded IC50.
> print(dat)
                                   compound  measured.attribute  reported
1  O=C(NC1CC(F)(F)C1)[C@H](c1ccccc1Cl)N(C(=O)[C@@H]1CCC(=O)N1c1ccc(F)cn1)c1cccc(F)c1 [Compound 29]                IC50  < 100 nM
2  CC(C)(O)c1cc(F)cc(N(C(=O)[C@@H]2CCOC(=O)N2c2cc(C#N)ccn2)[C@H](C(=O)NC2CC(F)(F)C2)c2ccccc2Cl)c1 [Compound 146]                IC50  < 100 nM

## Task Which measured IC50 value corresponds to O=C(NC1CC(F)(F)C1)[C@H](c1ccccc1Cl)N(C(=O)[C@@H]1CCC(=O)N1c1ccccn1)c1cccc(F)c1 [Compound 5] ?
## Result 100 to 500 nM

====

Tested on: U87MG cells
Experiment: Cellular assay, inhibition of 2-HG production in U87MG cells
Assay type: cell-based
Conditions: Homo sapiens, U-87 MG, 48 h
pIC50: −log10 of the molar value.
Measured attribute: pIC50

Study these solved cases before continuing.
> print(dat)
                                 cpd.smiles  reported
1  N#Cc1ccnc(N2C(=O)CC[C@H]2C(=O)N(c2cc(F)cc(C3CC3)c2)[C@H](C(=O)NC2CC(F)(F)C2)c2ccccc2Cl)c1    > 7.00
2  N#Cc1ccnc(N2C(=O)CC[C@H]2C(=O)N(c2ccc3[nH]ncc3c2)[C@H](C(=O)NC2CC(F)(F)C2)c2ccccc2Cl)c1    > 7.00
3  N#Cc1ccnc(N2C(=O)CC[C@H]2C(=O)N(c2cccc(F)c2)[C@H](C(=O)NC2CCC(F)(F)CC2)c2ccccc2Cl)c1    > 7.00
4  CN1CC(=O)N(c2cc(C#N)ccn2)[C@H](C(=O)N(c2cc(F)cc(F)c2)[C@H](C(=O)NC2CC(F)(F)C2)c2ccccc2Cl)C1    > 7.00
5  N#Cc1ccnc(N2C(=O)CC[C@H]2C(=O)N(c2cccc(F)c2)[C@H](C(=O)NC2CC(F)(F)C2)c2ccccc2Cl)c1F    > 7.00

## Task Can you look up the measured pIC50 of N#Cc1ccnc(N2C(=O)CC[C@H]2C(=O)N(c2cc(F)cc(F)c2)[C@H](C(=O)NC2CC(F)(F)C2)c2ccccc2)c1 for me?
## Result > 7.00

## Task Next record, please: N#Cc1ccnc(N2C(=O)CC[C@H]2C(=O)N(c2cc(F)cc(C3CC3)c2)[C@H](C(=O)NC2CCC(F)(F)CC2)c2ccccc2Cl)c1
## Result > 7.00

## Task What do we get for N#Cc1ccnc(N2C(=O)OCC[C@H]2C(=O)N(c2cncc(F)c2)[C@H](C(=O)NC2CC(F)(F)C2)c2ccccc2Cl)c1 ?
## Result > 7.00

## Task // same read-out, input: N#Cc1ccnc(N2C(=O)CC[C@H]2C(=O)N(c2cncc(F)c2)[C@H](C(=O)NC2CC(F)(F)C2)c2ccccc2)c1
## Result > 7.00

## Task Try this compound too: O=C(NC1CC(F)(F)C1)[C@H](c1ccccc1Cl)N(C(=O)[C@@H]1CCC(=O)N1c1cscn1)c1cccc(F)c1
## Result > 7.00
